System: Pseudomonas aeruginosa
procedureText: Bactericidal activity against Pseudomonas aeruginosa ATCC 10145 assessed as microbial killing during 18 hrs post sub-culture onto drug-free solid media by broth dilution method
Format: functional
conditions: ATCC 10145, 18 h, read-out: MBC99.9
experimentalReadout: MBC (µM)
Numbers only, in µM.

Example cases with answers are listed next.
itemsmiles=O=c1c2c(oc3ccccc13)-c1ccccc1OCCCO2 testedtarget="Pseudomonas aeruginosa" readingunit=µM measured=0.084
itemsmiles=O=c1c2c(oc3ccc(Cl)cc13)-c1ccccc1OCCO2 testedtarget="Pseudomonas aeruginosa" readingunit=µM measured=0.063
itemsmiles=O=c1c2c(oc3ccc(F)cc13)-c1ccccc1OCCCO2 testedtarget="Pseudomonas aeruginosa" readingunit=µM measured=0.032

Moving on to the next molecule.
Data request: Can you share its MBC? I mean this molecule: `O=c1c2c(oc3ccc(F)cc13)-c1ccccc1OCCCCCO2`
Data returned: 0.035
